# tgt: PfcProRS (Plasmodium falciparum)
# Sequence (Q8I5R7 whole entry): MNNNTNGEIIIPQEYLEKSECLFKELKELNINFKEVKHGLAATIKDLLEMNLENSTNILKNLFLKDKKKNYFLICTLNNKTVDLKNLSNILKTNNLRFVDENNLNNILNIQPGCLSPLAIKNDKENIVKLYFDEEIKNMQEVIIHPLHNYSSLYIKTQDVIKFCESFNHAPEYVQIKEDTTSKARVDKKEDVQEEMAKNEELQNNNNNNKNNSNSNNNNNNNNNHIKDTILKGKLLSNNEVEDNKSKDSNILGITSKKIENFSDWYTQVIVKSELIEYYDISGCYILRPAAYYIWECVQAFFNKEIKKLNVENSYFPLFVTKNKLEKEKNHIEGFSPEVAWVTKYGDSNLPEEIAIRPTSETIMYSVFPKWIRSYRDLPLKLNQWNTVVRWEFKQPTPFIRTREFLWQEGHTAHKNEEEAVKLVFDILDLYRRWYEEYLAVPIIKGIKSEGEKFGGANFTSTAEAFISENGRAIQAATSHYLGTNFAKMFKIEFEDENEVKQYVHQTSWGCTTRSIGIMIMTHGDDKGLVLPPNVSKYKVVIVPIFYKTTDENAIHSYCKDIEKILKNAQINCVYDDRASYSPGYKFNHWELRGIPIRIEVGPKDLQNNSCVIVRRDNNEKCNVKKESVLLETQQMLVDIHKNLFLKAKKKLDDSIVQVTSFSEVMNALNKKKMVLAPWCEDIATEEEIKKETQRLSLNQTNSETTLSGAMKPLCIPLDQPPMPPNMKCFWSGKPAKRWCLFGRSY
# assay_info: TR-FRET ligand displacement assay with tracer MAT379, PfcProRS
# Assay type: binding
# experimental_parameters: no proline, no ATP; read-out: PfcProRS (KD [nM]) −
result_type: Kd (nM)
Give just the number in nM; leave the unit off.

Guide cases for Kd, answers given:
molecule	reading
CC(C)(C)OC(=O)NCCCCCC(=O)NCC1CCN(C(=O)Nc2nccnc2C(=O)NC2Cc3ccccc3C2)CC1	375
O=C(CCCCCNC(=O)Nc1ccccc1)NCC1CCN(C(=O)Nc2nccnc2C(=O)NC2Cc3ccccc3C2)CC1	94.1
CC(C)(C)OC(=O)N1CCC[C@@H](OC(=O)NS(=O)(=O)N2CCN(C(=O)Nc3nccnc3C(=O)NC3Cc4ccccc4C3)CC2)[C@@H]1CC(O)Cn1cnc2cc(Br)c(Cl)cc2c1=O (stereo partly shown)	2490
O=C(CCCCCNC(=S)NC1CCCCC1)NC1CCN(C(=O)Nc2nccnc2C(=O)NC2Cc3ccccc3C2)CC1	198

Please examine the following record next.
Form field, Kd with PfcProRS (Plasmodium falciparum), item `CC(C)(C)OC(=O)N[C@H]1CC[C@@H](C(=O)Nc2nccnc2C(=O)NC2Cc3ccccc3C2)CC1` : 31.5
